Assign pIC50 to each entry below.
EXPERIMENTAL_TARGET: DPP-IV (Homo sapiens)
Sequence (P27487 39-766 limits assumed): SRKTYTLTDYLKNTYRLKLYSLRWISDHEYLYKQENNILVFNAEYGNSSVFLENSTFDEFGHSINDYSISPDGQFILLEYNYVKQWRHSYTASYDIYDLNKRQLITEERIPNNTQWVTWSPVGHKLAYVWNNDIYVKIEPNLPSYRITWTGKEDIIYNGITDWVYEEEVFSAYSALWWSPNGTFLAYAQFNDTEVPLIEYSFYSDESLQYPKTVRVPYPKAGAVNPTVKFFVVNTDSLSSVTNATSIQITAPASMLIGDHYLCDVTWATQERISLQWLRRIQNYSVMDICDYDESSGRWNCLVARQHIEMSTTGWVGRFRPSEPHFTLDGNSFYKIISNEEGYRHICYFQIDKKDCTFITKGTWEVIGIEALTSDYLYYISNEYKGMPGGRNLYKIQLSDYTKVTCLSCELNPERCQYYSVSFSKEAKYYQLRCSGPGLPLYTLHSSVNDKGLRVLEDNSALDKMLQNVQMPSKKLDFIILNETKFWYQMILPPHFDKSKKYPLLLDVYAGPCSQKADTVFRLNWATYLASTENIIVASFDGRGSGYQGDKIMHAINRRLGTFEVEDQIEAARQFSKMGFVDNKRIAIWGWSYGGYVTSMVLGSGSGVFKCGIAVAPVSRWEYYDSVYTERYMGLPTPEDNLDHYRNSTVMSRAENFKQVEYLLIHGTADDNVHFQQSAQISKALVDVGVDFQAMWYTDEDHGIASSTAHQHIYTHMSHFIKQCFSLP
ASSAY_EXPLANATION: DPP-IV inhibition, Gly-Pro-MCA substrate, human plasma as enzyme source (Pharmacological Test Example 1)
MEASUREMENT_SETUP: 30 minutes at room temperature
Numbers only, as −log10 of the molar value.

- COMPOUND: "Cn1cnc2cc(C(=O)NCC(C)(C)NCC(=O)N3CCC[C@H]3C#N)ccc21 [Example 56]"
  MEASURED_PROPERTY: "pIC50"
  OBSERVED_RESULT: 7.52
- COMPOUND: "N#C[C@@H]1CCCN1C(=O)CNCCCCNC(=O)c1ccc2ncsc2c1 [Example 105]"
  MEASURED_PROPERTY: "pIC50"
  OBSERVED_RESULT: 7.51

Next:
I have this compound here, CC(C)(CC(=O)N1Cc2cccc(O)c2C1)NCC(=O)N1CCC[C@H]1C#N [Example 70] , and I need its recorded pIC50.
7.49

Every entry's value here was drawn from patent US7345180B2.
